- Test system: EpiDerm™ EPI-200-MNA skin tissues
- condition.context: overall call
measured.attribute: classification in the RSMN assay by Lab D

chemical.structure | result
CC(=O)Nc1ccc2c(c1)Cc1ccccc1-2 | negative
Oc1ccc(Cl)cc1Cl | negative
OC[C@@H](O)[C@@H](O)[C@H](O)[C@H](O)CO | negative
O=[N+]([O-])c1ccc(O)cc1 | negative

So for "Cc1ccc(N)cc1N" , the logged classification in the RSMN assay by Lab D turned out to be negative

----------
- System: EpiDerm™ EPI-200-MNA skin tissues
- condition.context: two treatments; vs solvent control
measured.attribute: % MN-BN response in individual experiment(s), Lab C, 48-h protocol

Field: example entries. Status: answers known.
compound | result
C1=Cc2cc3cccc4ccc5ccc1c2c5c43 [Cyclopenta[c,d]pyrene (CPPE), Cyclopenta[c,d]pyrene] | negative results
C1CC2OC2CC1C1CO1 (stereo not drawn) [4-Vinyl-1-cyclohexene diepoxide] | negative
CCCCNC(=O)NS(=O)(=O)c1ccc(C)cc1 [Tolbutamide] | negative results
[Cl][Cd][Cl] [Cadmium chloride (CdCl2), Cadmium chloride] | negative

Would you kindly look at the next entry?
So for O=[N+]([O-])c1ccc(O)cc1 [4-Nitrophenol] , the logged % MN-BN response in individual experiment(s), Lab C, 48-h protocol turned out to be negative
